Sourced from patent US5236927A

Conditions: rat, in vivo, iv, 100 mg/kg, 0.5 h
METRIC: concentration (µM)
Use µM as the unit, but write only the number.

Inquiry: Look at this compound and give its reported concentration. C#CCN(Cc1ccc2nc(N)nc(O)c2c1)c1ccc(C(=O)N[C@@H](CCC(=O)O)C(=O)O)cc1 [CB3717, reference compound]
Reply text: 447

====

Measured TS IRP (inverse relative potency, I50 test compound/I50 CB3717) accompanies every entry in the list below.
Molecular target: Thymidylate synthetase (TS) (Mus musculus, UniProt P07607)
Construct: A 50,000 g supernatant was prepared from a TS over-producing (45-fold) L1210 cell line; endogenous in cells; host or cells: L1210 (TS over-producing subline, 45-fold), 50,000 g supernatant
Sequence (P07607 whole entry): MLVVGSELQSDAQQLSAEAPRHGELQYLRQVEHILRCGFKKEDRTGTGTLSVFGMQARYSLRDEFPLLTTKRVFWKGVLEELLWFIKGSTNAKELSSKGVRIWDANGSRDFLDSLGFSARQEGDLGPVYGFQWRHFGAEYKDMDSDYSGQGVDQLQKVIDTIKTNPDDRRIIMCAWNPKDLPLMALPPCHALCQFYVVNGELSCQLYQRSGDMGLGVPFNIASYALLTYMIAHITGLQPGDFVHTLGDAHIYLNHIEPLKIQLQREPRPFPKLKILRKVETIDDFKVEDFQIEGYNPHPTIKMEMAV
Assay: Thymidylate synthetase (TS) inhibition, 3H release assay
Type: biochemical
Settings: relative to CB3717
Would you mind answering with just the numeric figure?

Known results for compounds:
Inquiry: I would be grateful if you could share the reported TS IRP (inverse relative potency, I50 test compound/I50 CB3717) for "C#CCN(Cc1ccc2nc[nH]c(=O)c2c1)c1ccc(C(=O)N[C@@H](CCC(=O)O)C(=O)O)s1" .
Reply text: 85

Inquiry: Given the compound "CCN(Cc1ccc2nc[nH]c(=O)c2c1)c1ccc(C(=O)N[C@@H](CCC(=O)O)C(=O)O)cc1" , what is its reported TS IRP (inverse relative potency, I50 test compound/I50 CB3717)?
Reply text: 26

Inquiry: Reported TS IRP (inverse relative potency, I50 test compound/I50 CB3717) for "CN(Cc1ccc2nc[nH]c(=O)c2c1)c1ccc(C(=O)N[C@@H](CCC(=O)O)C(=O)O)cc1" : what is it?
Reply text: 53

Inquiry: # lookup: TS IRP (inverse relative potency, I50 test compound/I50 CB3717) of "C=CCN(Cc1ccc2nc[nH]c(=O)c2c1)c1ccc(C(=O)N[C@@H](CCC(=O)O)C(=O)O)cc1"
Reply text: 56

Further cases:
Inquiry: Could you share which TS IRP (inverse relative potency, I50 test compound/I50 CB3717) value was measured for "O=C(O)CC[C@H](NC(=O)c1ccc(NCc2ccc3nc[nH]c(=O)c3c2)cc1)C(=O)O" ?
Reply text: 1136

====

Test: Pharmacokinetics in rats
Details: rat, plasma, iv, 100 mg/kg, Plasma levels, 100 mg/kg 1 h i.v. infusion; end inf; individual rats
METRIC: concentration at 1 h (µM)
Your answer should be a plain number; it is taken to be in µM.

Inquiry: concentration at 1 h lookup needed for C#CCN(Cc1ccc2nc[nH]c(=O)c2c1)c1ccc(C(=O)N[C@@H](CCC(=O)O)C(=O)O)cc1 [CB3804] , thanks.
Reply text: 274

====

Experiment: Pharmacokinetics in rats
Conditions: rat, urine, iv, 100 mg/kg, Cumulative urinary excretion, 100 mg/kg 1 h i.v. infusion; individual rats
METRIC: dose excreted
Write the numeric value and follow it with the unit.

Inquiry: Any idea what its dose excreted is? The compound is "C#CCN(Cc1ccc2nc[nH]c(=O)c2c1)c1ccc(C(=O)N[C@@H](CCC(=O)O)C(=O)O)cc1"
Reply text: 11%

====

Experiment: Pharmacokinetics in rats
Conditions: read-out: Plasma levels; 100 mg/kg 1 h i.v. infusion; inf + 2 h; individual rats; 180 min
METRIC: concentration

Inquiry: For the compound shown here, C#CCN(Cc1ccc2nc[nH]c(=O)c2c1)c1ccc(C(=O)N[C@@H](CCC(=O)O)C(=O)O)cc1 [CB3804] , give the reported concentration.
Reply text: < 2000 nM

====

Test: Comparative pharmacokinetics in the mouse (plasma, liver, kidney levels)
Assay type: in vivo
Conditions: mouse, plasma, ip; 300 mg/kg i.p., 3 h post-treatment; read-out: Plasma quinazoline conc.
METRIC: concentration at 3 h

Inquiry: Query (compound): C#CCN(Cc1ccc2nc(N)nc(O)c2c1)c1ccc(C(=O)N[C@@H](CCC(=O)O)C(=O)O)cc1 [CB3717, reference compound] ; field requested: concentration at 3 h
Reply text: 214 µM

Now consider the entry below.
Inquiry: Would you kindly share the measured concentration at 3 h for "C#CCN(Cc1ccc2nc[nH]c(=O)c2c1)c1ccc(C(=O)N[C@@H](CCC(=O)O)C(=O)O)cc1" ?
Reply text: < 5 µM

====

Assay: in vivo
Conditions: rat, iv, 100 mg/kg, Plasma levels
METRIC: concentration at 0.5 h (µM)
Give just the number in µM; leave the unit off.

Inquiry: Which value of concentration at 0.5 h has been reported for C#CCN(Cc1ccc2nc(N)nc(O)c2c1)c1ccc(C(=O)N[C@@H](CCC(=O)O)C(=O)O)cc1 [CB3717, reference compound] in the records?
Reply text: 412

====

Test: Comparative pharmacokinetics in the mouse (plasma, liver, kidney levels)
Assay type: in vivo
Conditions: mouse, plasma, ip; 300 mg/kg i.p., 6 h post-treatment; read-out: Plasma quinazoline conc.
concentration at 6 h for assorted compounds

Inquiry: Need concentration at 6 h of "C#CCN(Cc1ccc2nc[nH]c(=O)c2c1)c1ccc(C(=O)N[C@@H](CCC(=O)O)C(=O)O)cc1" , thanks.
Reply text: < 5 µM

More entries:
Inquiry: Which concentration at 6 h is listed for C#CCN(Cc1ccc2nc(N)nc(O)c2c1)c1ccc(C(=O)N[C@@H](CCC(=O)O)C(=O)O)cc1 [CB3717, reference compound] ?
Reply text: 362 µM

====

Experiment: Urinary and faecal elimination in the mouse
Assay type: in vivo
Conditions: urine, ip, 100 mg/kg i.p., 0-48 h, read-out: Urinary excretion of the parent compound
Known dose excreted at 48 h of a selection of compounds
Form entry: value (%) — number only.

Inquiry: // query dose excreted at 48 h value for entry C#CCN(Cc1ccc2nc[nH]c(=O)c2c1)c1ccc(C(=O)N[C@@H](CCC(=O)O)C(=O)O)cc1 [CB3804]
Reply text: 4

More entries:
Inquiry: Fill in the blank: the reported dose excreted at 48 h of C#CCN(Cc1ccc2nc(N)nc(O)c2c1)c1ccc(C(=O)N[C@@H](CCC(=O)O)C(=O)O)cc1 [CB3717, reference compound] is ____.
Reply text: 15

====

Assay: Pharmacokinetics in rats
Conditions: read-out: Plasma levels; 100 mg/kg 1 h i.v. infusion; mid inf; individual rats; 30 min; 100 mg/kg, 30 min
METRIC: concentration (µM)
Number in µM, nothing else.

Inquiry: Item "C#CCN(Cc1ccc2nc[nH]c(=O)c2c1)c1ccc(C(=O)N[C@@H](CCC(=O)O)C(=O)O)cc1" has what recorded concentration?
Reply text: 258

====

Test: Urinary and faecal elimination in the mouse
Assay type: in vivo
Conditions: faeces, ip, 100 mg/kg i.p., 0-48 h, read-out: Faecal excretion of the parent compound
Consider the following compounds and their measured dose excreted at 48 h readings.
I only need the number, in %, no unit after it.

Inquiry: Item "C#CCN(Cc1ccc2nc[nH]c(=O)c2c1)c1ccc(C(=O)N[C@@H](CCC(=O)O)C(=O)O)cc1" has what recorded dose excreted at 48 h?
Reply text: 15

Consider the record given below.
Inquiry: May I ask what dose excreted at 48 h has been recorded for C#CCN(Cc1ccc2nc(N)nc(O)c2c1)c1ccc(C(=O)N[C@@H](CCC(=O)O)C(=O)O)cc1 [CB3717, reference compound] ?
Reply text: 26

====

Assay: Pharmacokinetics in rats
Settings: read-out: Plasma levels; 100 mg/kg 1 h i.v. infusion; inf + 1 h; individual rats; 120 min; 100 mg/kg, 120 min
METRIC: concentration (µM)
Give just the numeric value; µM need not be written.

Inquiry: Can you look up the measured concentration of "C#CCN(Cc1ccc2nc[nH]c(=O)c2c1)c1ccc(C(=O)N[C@@H](CCC(=O)O)C(=O)O)cc1" for me?
Reply text: 19

====

Assay: Pharmacokinetics in rats
Conditions: rat, plasma, iv, 100 mg/kg, Plasma levels, 100 mg/kg 1 h i.v. infusion; inf + 3 h; individual rats
METRIC: concentration at 4 h

Inquiry: Which measured concentration at 4 h value corresponds to "C#CCN(Cc1ccc2nc[nH]c(=O)c2c1)c1ccc(C(=O)N[C@@H](CCC(=O)O)C(=O)O)cc1" ?
Reply text: < 2000 nM

====

Experiment: Comparative pharmacokinetics in the mouse (plasma, liver, kidney levels)
Assay type: in vivo
Conditions: mouse, plasma, ip; 100 mg/kg i.p., 6 h post-treatment; read-out: Plasma quinazoline conc.
METRIC: concentration at 6 h (µM)
Unit µM implied. Number only.

Inquiry: Reported concentration at 6 h, compound C#CCN(Cc1ccc2nc(N)nc(O)c2c1)c1ccc(C(=O)N[C@@H](CCC(=O)O)C(=O)O)cc1 [CB3717, reference compound] : ____
Reply text: 59

====

Experiment: Pharmacokinetics in rats
Conditions: rat, plasma, iv, 100 mg/kg, Plasma levels, 100 mg/kg 1 h i.v. infusion; inf + 1 h; individual rats
METRIC: concentration at 2 h (µM)
Entry rule: numbers only, all in µM.

Inquiry: What measured concentration at 2 h goes with "C#CCN(Cc1ccc2nc[nH]c(=O)c2c1)c1ccc(C(=O)N[C@@H](CCC(=O)O)C(=O)O)cc1" ?
Reply text: 10
